Data credit: patent US20230192896A1

Molecular target: T1, FX zymogen (UniProt P00742 41-179; P00742 183-488)
T1 chain 1: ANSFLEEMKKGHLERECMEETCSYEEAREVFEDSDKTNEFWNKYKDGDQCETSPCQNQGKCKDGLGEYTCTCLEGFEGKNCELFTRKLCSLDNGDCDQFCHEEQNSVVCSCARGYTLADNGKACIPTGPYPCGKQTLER
T1 chain 2: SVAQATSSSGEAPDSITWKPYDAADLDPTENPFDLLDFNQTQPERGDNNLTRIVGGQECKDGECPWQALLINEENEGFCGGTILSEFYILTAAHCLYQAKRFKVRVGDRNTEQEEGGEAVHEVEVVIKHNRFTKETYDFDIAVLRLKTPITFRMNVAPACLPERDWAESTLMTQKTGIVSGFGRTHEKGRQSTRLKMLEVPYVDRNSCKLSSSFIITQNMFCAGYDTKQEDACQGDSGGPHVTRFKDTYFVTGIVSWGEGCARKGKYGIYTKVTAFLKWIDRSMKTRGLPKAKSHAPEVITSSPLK
Test: BLI
We begin with a simple list: items and their reported Kd.
Respond numerically; units are nM and should not be typed.

Before answering, review these 2 worked examples.
{"binder": "BIIB-12-1323 (antibody, V domains shown) VH: QVQLVQSGAEVKKPGASVKVSCKASGYTFTSYYIHWVRQAPGQGLEWMGIINPSGGSTSYAQKFQGRVTMTRDTSTSTVYMELSSLRSEDTAVYYCARGRRFPRGLDYWGQGTLVTVSS VL: DIQMTQSPSSVSASVGDRVTITCRASQGISSWLAWYQQKPGKAPKLLIYAASSLQSGVPSRFSGSGSGTDFTLTISSLQPEDFATYYCQQANIFPFTFGGGTKVEIK", "units": "nM", "Kd": 38.6}
{"binder": "BIIB-12-895 (antibody, V domains shown) VH: QVQLVQSGAEVKKPGASVKVSCKASGYTFTSYYMHWVRQAPGQGLEWMGIINPSGGSTSYAQKFQGRVTMTRDTSTSTVYMELSSLRSEDTAVYYCARGGGYKSRGIDYWGQGTLVTVSS VL: DIQMTQSPSSVSASVGDRVTITCRASQGISSWLAWYQQKPGKAPKLLIYAASSLQSGVPSRFSGSGSGTDFTLTISSLQPEDFATYYCQQASSFPFTFGGGTKVEI", "units": "nM", "Kd": 26.3}

**Query** Please list Kd recorded for the binder BIIB-12-898 (antibody, V domains shown) VH: QVQLVQSGAEVKKPGASVKVSCKASGYTFTSYYMHWVRQAPGQGLEWMGIINPSGGSTTYAQKFQGRVTMTRDTSTSTVYMELSSLRSEDTAVYYCARGDRMLRAFDPWGQGTLVTVSS VL: DIQLTQSPSTLSASVGDRVTITCRASQAISSWLAWYQQKPGKAPKLLIYDASSLESGVPSRFSGSGSGTEFTLTISSLQPDDFATYYCQQVNRFPFTFGGGTKVEIK
**Result** 18.5

**Query** Please list Kd recorded for the binder BIIB-12-1295 (antibody, V domains shown) VH: QVQLVQSGAEVKKPGASVKVSCKASGYTFTSYYMVWVRQAPGQGLEWMGIINPSGGSTSYAQKFQGRVTMTRDTSTSTVYMELSSLRSEDTAVYYCARVGGATTGKIGYGMDVWGQGTTVTVSS VL: DIQMTQSPSSVSASVGDRVTITCRASQGISSWLAWYQQKPGKAPKLLIYAASNLQSGVPSRFSGSGSGTDFTLTISSLQPEDFATYYCQQAISLPITFGGGTKVEIK
**Result** 42.6

**Query** Please list Kd recorded for the binder BIIB-12-1321 (antibody, V domains shown) VH: QVQLVQSGAEVKKPGSSVKVSCKASGGTFSSYAISWVRQAPGQGLEWMGGIIPIFGTANYAQKFQGRVTITADESTSTAYMELSSLRSEDTAVYYCARTPDTSSATDWGQGTLVTVSS VL: EIVMTQSPATLSLSPGERATLSCRASQSVSSYLAWYQQKPGQAPRLLIYDSSNRATGIPARFSGSGSGTDFTLTISSLEPEDFAVYYCQQFTNLPYTFGGGTKVEIK
**Result** 10.6
